- Read-out: UDP glucuronosyltransferase (UGT1A6), UGT1A6 (gene 54578)
- test-name: LTEA_HepaRG_UGT1A6: Life Technologies and Expression Analysis (LTEA) Assay for UDP glucuronosyltransferase (UGT1A6) using HepaRG (AID 2283539)
- experimental-conditions: mRNA level, 48 h; actives raise or lower the signal
Active and inactive are the calls of the source. Rule for the calls: active = hit-call score of the fitted dose curve at least 0.9, where 1 is the maximum; inactive = score below 0.9.
property-label: outcome

[
  {
    "compound-string": "CCCCSP(=O)(SCCCC)SCCCC",
    "result": "inactive"
  },
  {
    "compound-string": "CC1=NNC(=O)N(/N=C/c2cccnc2)C1",
    "result": "inactive"
  },
  {
    "compound-string": "Cc1cc(C2CC2)nc(Nc2ccccc2)n1",
    "result": "inactive"
  }
]

###

- study-target: human Phosphoinositide 3-kinase alpha (PI3Ka), PIK3CA (gene 5290)
- test-name: NVS_ENZ_hPI3Ka: NovaScreen (NVS) Enzymatic Assay for human Phosphoinositide 3-kinase alpha (PI3Ka) (AID 2283196)
Records with an inconclusive call do not appear. Active and inactive are the calls of the source. Rule for the calls: active = hit-call score of the fitted dose curve at least 0.9, where 1 is the maximum; inconclusive = response in the unintended direction; inactive = score below 0.9.
The categories you may choose from are active, inactive

Before answering, review these 3 worked examples.
[
  {
    "compound": "CC(C)=CC1C(C(=O)OCN2C(=O)C3=C(CCCC3)C2=O)C1(C)C (centres undefined)",
    "study-target": "human Phosphoinositide 3-kinase alpha (PI3Ka), PIK3CA (gene 5290)",
    "classification": "inactive"
  },
  {
    "compound": "CC1(C(=O)Nc2ccc(O)c(Cl)c2Cl)CCCCC1",
    "study-target": "human Phosphoinositide 3-kinase alpha (PI3Ka), PIK3CA (gene 5290)",
    "classification": "inactive"
  },
  {
    "compound": "CC[C@H](C)[C@H]1O[C@]2(C=C[C@@H]1C)C[C@@H]1C[C@@H](C/C=C(\\C)[C@@H](O[C@H]3C[C@H](OC)[C@@H](O[C@H]4C[C@H](OC)[C@@H](NC)[C@H](C)O4)[C@H](C)O3)[C@@H](C)/C=C/C=C3\\CO[C@@H]4[C@H](O)C(C)=C[C@@H](C(=O)O1)[C@]34O)O2",
    "study-target": "human Phosphoinositide 3-kinase alpha (PI3Ka), PIK3CA (gene 5290)",
    "classification": "active"
  }
]

Lab note: next compound to report on.
Input: // outcome(item) with item = `CNC(=O)ON=C(C)SC`
Output: inactive

###

- test-name: Tanguay_ZF_120hpf_MORT_legacy: (Legacy) Oregon State University Tanguay Lab 120 Hour Post-fertilization zebrafish Assay for Mortality (AID 2283633)
Activity calls are given as the source filed them. How the source made its calls: active means hit-call score of the fitted dose curve at least 0.9, where 1 is the maximum; inconclusive means response in the unintended direction; inactive means score below 0.9.
property-label: outcome

Here's what some known entries look like.
[
  {
    "molecule": "CCOP(=S)(OCC)OC(Cl)C(Cl)(Cl)Cl (stereo not given)",
    "outcome": "inactive"
  },
  {
    "molecule": "COc1ccc(C(=CC(=O)N2CCOCC2)c2ccc(Cl)cc2)cc1OC",
    "outcome": "inactive"
  },
  {
    "molecule": "C[Si](Cn1cncn1)(c1ccc(F)cc1)c1ccc(F)cc1",
    "outcome": "inactive"
  },
  {
    "molecule": "CCOP(=S)(OCC)Oc1cc(C)nc(C(C)C)n1",
    "outcome": "inactive"
  },
  {
    "molecule": "FC(F)C(F)(F)OCC(Cn1cncn1)c1ccc(Cl)cc1Cl (stereo not given)",
    "outcome": "inactive"
  }
]

Input: For `COc1cccc(C(=O)NN(C(=O)c2cc(C)cc(C)c2)C(C)(C)C)c1C` , what is its reported outcome?
Output: inactive

Input: For `Cc1ccn2nc(S(=O)(=O)Nc3c(F)cccc3F)nc2n1` , what is its reported outcome?
Output: inactive
